meta.source: patent US9511010B2

test system: FOXO response elements; experiment: Stimulation of the expression of proteins regulated by FOXO: luciferase reporter under FOXO response elements; format: cell-based, human; details: 0.5 mg/mL, 24 hours; carrier (0.05% DMSO) = 100
ATTRIBUTE_MEASURED: Stimulation Average (%) of the activation of the FOXO response factors

- SUBSTANCE: "Ac-L-Tyr-L-Tyr-L-Lys-L-Leu-L-Gln-L-Val-NH2 (Ac-YYKLQV-NH2) [Ac-SEQ ID NO: 23-NH2]"
  TESTED_ON: "FOXO response elements"
  MEASURED_VALUE: 174
- SUBSTANCE: "Ac-L-Tyr-L-Glu-L-Ser-L-His-L-Gln-L-Val-NH2 (Ac-YESHQV-NH2) [Ac-SEQ ID NO: 19-NH2]"
  TESTED_ON: "FOXO response elements"
  MEASURED_VALUE: 145
- SUBSTANCE: "Ac-L-Tyr-L-Glu-L-Pro-L-His-L-Gln-L-Val-NH2 (Ac-YEPHQV-NH2) [Ac-SEQ ID NO: 40-NH2]"
  TESTED_ON: "FOXO response elements"
  MEASURED_VALUE: 131
- SUBSTANCE: "Ac-L-Tyr-L-Asn-L-Ser-L-Lys-L-Gln-L-Val-NH2 (Ac-YNSKQV-NH2) [Ac-SEQ ID NO: 27-NH2]"
  TESTED_ON: "FOXO response elements"
  MEASURED_VALUE: 128
- SUBSTANCE: "Ac-L-Tyr-L-Tyr-L-Pro-L-Lys-L-Gln-L-Val-NH2 (Ac-YYPKQV-NH2) [Ac-SEQ ID NO: 42-NH2]"
  TESTED_ON: "FOXO response elements"
  MEASURED_VALUE: 133
- SUBSTANCE: "Ac-L-Tyr-L-His-L-Pro-L-His-L-Gln-L-Val-NH2 (Ac-YHPHQV-NH2) [Ac-SEQ ID NO: 28-NH2]"
  TESTED_ON: "FOXO response elements"
  MEASURED_VALUE: 125
- SUBSTANCE: "Ac-L-Tyr-L-His-L-Ser-L-Lys-L-Gln-L-Val-NH2 (Ac-YHSKQV-NH2) [Ac-SEQ ID NO: 26-NH2]"
  TESTED_ON: "FOXO response elements"
  MEASURED_VALUE: 124

====

tested on: FOXO response elements; experiment: Stimulation of the expression of proteins regulated by FOXO: luciferase reporter under FOXO response elements; assay type: cell-based, human; conditions: 0.5 mg/mL, 24 hours; carrier (0.05% DMSO) = 100
ATTRIBUTE_MEASURED: Stimulation Average (%) of the activation of the FOXO response factors

- SUBSTANCE: "Ac-L-Tyr-L-Tyr-L-Ser-L-His-L-Gln-L-Val-NH2 (Ac-YYSHQV-NH2) [Ac-SEQ ID NO: 20-NH2]"
  MEASURED_VALUE: 157
- SUBSTANCE: "Ac-L-Tyr-L-Asn-L-Ser-L-His-L-Gln-L-Val-NH2 (Ac-YNSHQV-NH2) [Ac-SEQ ID NO: 41-NH2]"
  MEASURED_VALUE: 129
- SUBSTANCE: "Ac-L-Tyr-L-Glu-L-Ser-L-Lys-L-Gln-L-Val-NH2 (Ac-YESKQV-NH2) [Ac-SEQ ID NO: 24-NH2]"
  MEASURED_VALUE: 133
- SUBSTANCE: "Ac-L-Tyr-L-Asn-L-Lys-L-Lys-L-Gln-L-Val-NH2 (Ac-YNKKQV-NH2) [Ac-SEQ ID NO: 8-NH2]"
  MEASURED_VALUE: 106
- SUBSTANCE: "Ac-L-Tyr-L-Tyr-L-Pro-L-His-L-Gln-L-Val-NH2 (Ac-YYPHQV-NH2) [Ac-SEQ ID NO: 29-NH2]"
  MEASURED_VALUE: 120
- SUBSTANCE: "Ac-YEKLQV-NH2 [Ac-SEQ ID NO: 22-NH2]"
  MEASURED_VALUE: 186
- SUBSTANCE: "Ac-L-Tyr-L-Asn-L-Pro-L-His-L-Gln-L-Val-NH2 (Ac-YNPHQV-NH2) [Ac-SEQ ID NO: 18-NH2]"
  MEASURED_VALUE: 148
- SUBSTANCE: "Ac-L-Tyr-L-Asn-L-Lys-L-Leu-L-Gln-L-Val-NH2 (Ac-YNKLQV-NH2) [Ac-SEQ ID NO: 21-NH2]"
  MEASURED_VALUE: 157
- SUBSTANCE: "Ac-L-Tyr-L-Glu-L-Ser-Gly-L-Gln-L-Val-NH2 (Ac-YESGQV-NH2) [Ac-SEQ ID NO: 16-NH2]"
  MEASURED_VALUE: 119
- SUBSTANCE: "Ac-L-Tyr-L-His-L-Lys-L-Leu-L-Gln-L-Val-NH2 (Ac-YHKLQV-NH2) [Ac-SEQ ID NO: 25-NH2]"
  MEASURED_VALUE: 168
- SUBSTANCE: "Ac-L-Tyr-L-His-L-Ser-L-His-L-Gln-L-Val-NH2 (Ac-YHSHQV-NH2) [Ac-SEQ ID NO: 30-NH2]"
  MEASURED_VALUE: 138
- SUBSTANCE: "Ac-L-Tyr-L-Asn-L-Lys-Gly-L-Gln-L-Val-NH2 (Ac-YNKGQV-NH2) [Ac-SEQ ID NO: 1-NH2]"
  MEASURED_VALUE: 143
